Literature-derived pIC50 for USP30 (Homo sapiens (Human)) follows.
pIC50: −log10 of the molar value.

See these solved cases before continuing.
C[C@@H]1CN(C#N)C[C@H]1NC(=O)c1ncc(-c2ccccc2)s1    > 7.00
Cn1c([C@@H]2CCCN2C#N)nc2cc(-c3ccccc3)ccc21    4.00 to 5.00
N#Cc1cccc(-c2cnc(N3CCO[C@@H]4CN(C#N)C[C@@H]43)cn2)c1 (racemic)    8.00 to 9.00
Cc1cc(-c2cc(C3CCN(C#N)C3)[nH]n2)ccn1 (stereo not drawn)    5.00 to 6.00
Cc1ccc(F)c(-c2ccc3nc(C4CCN(C#N)C4)[nH]c3c2)c1 (stereo not drawn)    > 7.00
Cc1cc(-c2cc(C(=O)N(C)[C@@H]3CCN(C#N)C3)on2)ccn1    6.00 to 7.00
CN(c1ccccc1)S(=O)(=O)N(C)C1CCN(C#N)C1 (stereo not drawn)    5.00 to 6.00
Cc1ccc(S(=O)(=O)NCc2ccccc2)cc1-c1ccc2oc([C@@H]3CCCN3C#N)nc2c1    5.00 to 6.00

GET /values?readout=pIC50&item= `N#CN1CC[C@@H](NC(=O)c2ccc(-c3ccnc(C(F)(F)F)n3)cc2F)C1`
6.00 to 7.00

Same question for `Cn1ncc2cc(-c3ccc4oc([C@@H]5CCCN5C#N)nc4c3)ccc21` please.
5.00 to 6.00

Same question for CN(Cc1ccccc1)c1ccc(C(=O)NC2CCN(C#N)C2)cn1 (stereo not drawn) please.
6.00 to 7.00

Same question for `N#CN1CC[C@@H](NC(=O)N2CC(c3ccn(-c4cnccn4)n3)C2)C1` please.
6.00 to 7.00

Same question for `N#CN1CC[C@@H](N2CCN(c3ccc(-c4ccccc4)cc3)S2(=O)=O)C1` please.
> 7.00

Same question for `N#CN1CC[C@@H](NC(=O)N2CCN(c3ccccc3)CC2)C1` please.
6.00 to 7.00

Same question for N#CN1CCC(N2CCN(c3ccccc3)S2(=O)=O)C1 (stereo not drawn) please.
6.00 to 7.00

Same question for `N#Cc1cc(-c2cncc(-c3nc([C@@H]4CCCN4C#N)no3)n2)ccn1` please.
> 7.00

Same question for `N#CN1CC[C@@H](NC(=O)c2ccc(N3CCCC3)cc2F)C1` please.
> 7.00

Same question for `CC(C)(C)NS(=O)(=O)c1cccc2c(NC(=O)[C@H](Cc3ccccc3)NC(=O)C34CC5CC(CC(C5)C3)C4)cccc12` please.
< 5.00

----------
pIC50: −log10 of the molar value.
Literature-derived pIC50 for USP30 (Homo sapiens (Human)) follows.

Cn1ncc2cc(-c3ccc4c(c3)CCN4C(=O)C3(F)CCN(C#N)C3)ccc21 (stereo not shown)    6.00 to 7.00

GET /values?readout=pIC50&item= `CC(C)(C)NS(=O)(=O)c1cccc2c(NC(=O)[C@H](Cc3ccccc3)NC(=O)c3ncccn3)cccc12`
< 5.00

Same question for `CN(C)C(=O)c1ccc(C2CN(C(=O)C[C@@H]3CCN(C#N)C3)C2)cc1` please.
6.00 to 7.00

Same question for `N#CN1CCO[C@H](C(=O)Nc2ncc(-c3ccccc3)s2)C1` please.
5.00 to 6.00

----------
Literature-derived IC50 for USP30 (Homo sapiens (Human), UniProt Q70CQ3) follows.

See these solved cases before continuing.
N#CN1CCCC1c1noc(-c2cccc(-c3ccoc3)c2)n1 (stereo not drawn)    100 to 1000 nM
N#CN1CC[C@@H](NC(=O)c2ccc(-c3ccn4nccc4n3)cc2F)C1    < 100 nM
N#CN1CCCC1c1nnc(-c2cccc(-c3ccccc3)c2)o1 (stereo not drawn)    1000 to 10000 nM
Cn1cc(-c2cccc(N3CCCN([C@@H]4CCN(C#N)C4)S3(=O)=O)c2)cn1    100 to 1000 nM
N#CN1CCC(c2cc(-c3cccc(-c4cnoc4)c3)[nH]n2)C1 (stereo not drawn)    100 to 1000 nM
CCOC(=O)N1CCN(c2ccc(C(=O)NC3CCN(C#N)C3)cn2)CC1 (racemic)    1000 to 10000 nM
Cc1cc(C(=O)N[C@@H]2CCN(C#N)C2)nn1Cc1ccccn1    100 to 1000 nM
Cn1cc(-c2ccc(F)c(C(=O)N[C@@H]3CCN(C#N)C3)c2)cn1    100 to 1000 nM

Query compound follows.
GET /values?readout=IC50&item= CO[C@@H]1CCN(c2ccc(-c3nc(C4CCN(C#N)C4)no3)cc2)C1 (stereo partly drawn)
1000 to 10000 nM
